Test system: Caco-2 cell monolayer
Assay: Caco-2 monolayer transport (bioavailability) study, AB and BA directions
Assay type: in vitro ADME, Homo sapiens
Conditions: BA experiment, donor side, S2 (22 mg/mL GSE), 115 min
Marks after values point to notes of the source that are not given here.
// values below are reported Basolateral Side 115 min

Example cases with answers are listed next.
compound	measurement
OC[C@H]1O[C@@H](Oc2cc3c(O)cc(O)cc3[o+]c2-c2cc(O)c(O)c(O)c2)[C@H](O)[C@@H](O)[C@@H]1O [D3G, delphinidin-3-O-glucoside]	3.4 ± 0.2 ^d mg/L
O=c1c(OC2O[C@H](CO)[C@H](O)[C@H](O)[C@H]2O)c(-c2ccc(O)cc2)oc2cc(O)cc(O)c12 (stereo partly shown) [K3Gal, kaempferol-3-galactoside]	0.67 ± 0.02 ^d mg/L
COc1cc(C(=O)O)cc(OC)c1O [SA, syringic acid]	0.96 ± 0.08 ^b,c mg/L

Challenge: Quick check: Basolateral Side 115 min of O=c1c(O[C@@H]2O[C@H](CO)[C@@H](O)[C@H](O)[C@H]2O)c(-c2ccc(O)cc2)oc2cc(O)cc(O)c12 [K3G, kaempferol-3-glucoside] ?
Response given: 9.1 ± 0.2 ^d mg/L

----------
// values below are reported Apical Side 115 min
Tested on: Caco-2 cell monolayer
Assay: Caco-2 monolayer transport (bioavailability) study, AB and BA directions
Assay type: in vitro ADME, Homo sapiens
Conditions: BA experiment, acceptor side, S1 (15 mg/mL GSE), 115 min
Method: A reversed phase C18 column (Luna 5 μm C18(2) 100 Å, LC Column 250 × 4.6 mm, Phenomenex) was used to separate the polyphenols at a flow rate of 0.7 mL/min with an injection volume of 60 µL. […] Every polyphenol was quantified using the corresponding reference standard calibration curve. Each of the quantified phenolic compound concentration was expressed as mg/mL […]
Marks after values point to notes of the source that are not given here.

Example cases with answers are listed next.
compound	experimental-target	measurement
O=c1c(O[C@@H]2O[C@H](CO)[C@@H](O)[C@H](O)[C@H]2O)c(-c2ccc(O)cc2)oc2cc(O)cc(O)c12 [K3G, kaempferol-3-glucoside]	Caco-2 cell monolayer	8.7 ± 0.4 ^d mg/L
O=C(/C=C/c1ccc(O)c(O)c1)O[C@@H](C(=O)O)[C@@H](O)C(=O)O [CA, caftaric acid]	Caco-2 cell monolayer	0.10 ± 0.01 ^d mg/L
O=C(O)c1cc(O)c(O)c(O)c1 [GA, gallic acid]	Caco-2 cell monolayer	10.5 ± 0.3 ^c,d mg/L
COc1cc(-c2[o+]c3cc(O)cc(O)c3cc2O[C@@H]2O[C@H](CO)[C@@H](O)[C@H](O)[C@H]2O)cc(OC)c1O [M3G, malvidin-3-O-glucoside]	Caco-2 cell monolayer	0.28 ± 0.02 ^c mg/L

Note: attention shifts to another entry.
Challenge: Quick check: Apical Side 115 min of O=c1c(O[C@@H]2O[C@H](CO)[C@@H](O)[C@H](O)[C@H]2O)c(-c2ccc(O)c(O)c2)oc2cc(O)cc(O)c12 [Q3G, quercetin-3-glucoside] ?
Response given: 0.011 ± 0.001 ^c mg/L

----------
Tested on: Caco-2 cell monolayer
Experiment: Caco-2 monolayer transport (bioavailability) study, AB and BA directions
Format: in vitro ADME, Homo sapiens
Details: BA experiment, donor side, S2 (22 mg/mL GSE), 75 min
Marks after values point to notes of the source that are not given here.
readout-type: Basolateral Side 75 min

Challenge: Quick check: Basolateral Side 75 min of O=c1c(O[C@@H]2O[C@H](CO)[C@@H](O)[C@H](O)[C@H]2O)c(-c2ccc(O)c(O)c2)oc2cc(O)cc(O)c12 [Q3G, quercetin-3-glucoside] ?
Response given: 0.38 ± 0.03 ^a,b mg/L

Challenge: Quick check: Basolateral Side 75 min of OC[C@H]1O[C@@H](Oc2cc3c(O)cc(O)cc3[o+]c2-c2cc(O)c(O)c(O)c2)[C@H](O)[C@@H](O)[C@@H]1O [D3G, delphinidin-3-O-glucoside] ?
Response given: 3.5 ± 0.2 ^a mg/L

Challenge: Quick check: Basolateral Side 75 min of COc1cc(-c2[o+]c3cc(O)cc(O)c3cc2O[C@@H]2O[C@H](CO)[C@@H](O)[C@H](O)[C@H]2O)cc(O)c1O [Pet3G, petunidin-3-O-glucoside] ?
Response given: 3.0 ± 0.2 ^a mg/L

Challenge: Quick check: Basolateral Side 75 min of COc1cc(C(=O)O)cc(OC)c1O [SA, syringic acid] ?
Response given: 1.10 ± 0.09 ^a,b mg/L

Challenge: Quick check: Basolateral Side 75 min of O=c1c(OC2O[C@H](CO)[C@H](O)[C@H](O)[C@H]2O)c(-c2ccc(O)cc2)oc2cc(O)cc(O)c12 (some centres unmarked) [K3Gal, kaempferol-3-galactoside] ?
Response given: 0.75 ± 0.02 ^b mg/L

----------
System: Caco-2 cell monolayer
Test: Caco-2 monolayer transport (bioavailability) study, AB and BA directions
Assay type: in vitro ADME, Homo sapiens
Conditions: AB experiment, acceptor side, S2 (22 mg/mL GSE), 90 min
Marks after values point to notes of the source that are not given here.
readout-type: Basolateral Side 90 min

Challenge: Param readout = Basolateral Side 90 min; param system = Caco-2 cell monolayer; param query = O=C(O)c1cc(O)c(O)c(O)c1 ; response: value
Response given: 8.6 ± 0.9 ^b mg/L

----------
Tested on: Caco-2 cell monolayer
Experiment: Caco-2 monolayer transport (bioavailability) study, AB and BA directions
Assay type: in vitro ADME, Homo sapiens
Conditions: BA experiment, donor side, S1 (15 mg/mL GSE), 180 min
Marks after values point to notes of the source that are not given here.
readout-type: Basolateral Side 180 min

Example cases with answers are listed next.
compound	measurement
O=C(/C=C/c1ccc(O)c(O)c1)O[C@@H](C(=O)O)[C@@H](O)C(=O)O	0.59 ± 0.02 ^c mg/L
COc1cc(-c2[o+]c3cc(O)cc(O)c3cc2O[C@@H]2O[C@H](CO)[C@@H](O)[C@H](O)[C@H]2O)cc(OC)c1O [M3G, malvidin-3-O-glucoside]	8.0 ± 0.6 ^c mg/L
COc1cc(C(=O)O)cc(OC)c1O	0.44 ± 0.06 ^d mg/L

Note: attention shifts to another entry.
Challenge: Quick check: Basolateral Side 180 min of O=c1c(O[C@@H]2O[C@H](CO)[C@@H](O)[C@H](O)[C@H]2O)c(-c2ccc(O)cc2)oc2cc(O)cc(O)c12 [K3G, kaempferol-3-glucoside] ?
Response given: 6.1 ± 0.1 ^c mg/L

----------
System: Caco-2 cell monolayer
Experiment: Caco-2 monolayer transport (bioavailability) study, AB and BA directions
Assay type: in vitro ADME, Homo sapiens
Settings: AB experiment, donor side, S2 (22 mg/mL GSE), 90 min
Marks after values point to notes of the source that are not given here.
// values below are reported Apical Side 90 min

Example cases with answers are listed next.
compound	Apical Side 90 min
O=C(O)c1cc(O)c(O)c(O)c1	4.4 ± 0.3 ^c mg/L
COc1cc(-c2[o+]c3cc(O)cc(O)c3cc2O[C@@H]2O[C@H](CO)[C@@H](O)[C@H](O)[C@H]2O)cc(OC)c1O [M3G, malvidin-3-O-glucoside]	9.2 ± 0.9 ^c mg/L

Challenge: Quick check: Apical Side 90 min of O=C(/C=C/c1ccc(O)c(O)c1)O[C@@H](C(=O)O)[C@@H](O)C(=O)O ?
Response given: 1.37 ± 0.02 ^c mg/L

Challenge: Quick check: Apical Side 90 min of O=c1c(O[C@@H]2O[C@H](CO)[C@@H](O)[C@H](O)[C@H]2O)c(-c2ccc(O)cc2)oc2cc(O)cc(O)c12 [K3G, kaempferol-3-glucoside] ?
Response given: 11.3 ± 0.3 ^b,c mg/L

Challenge: Quick check: Apical Side 90 min of COc1cc(-c2[o+]c3cc(O)cc(O)c3cc2O[C@@H]2O[C@H](CO)[C@@H](O)[C@H](O)[C@H]2O)cc(O)c1O [Pet3G, petunidin-3-O-glucoside] ?
Response given: 3.7 ± 0.1 ^c mg/L

Challenge: Quick check: Apical Side 90 min of O=c1c(OC2O[C@H](CO)[C@H](O)[C@H](O)[C@H]2O)c(-c2ccc(O)cc2)oc2cc(O)cc(O)c12 (stereo partly drawn) [K3Gal, kaempferol-3-galactoside] ?
Response given: 1.01 ± 0.02 ^c mg/L

----------
Tested on: Caco-2 cell monolayer
Assay: Caco-2 monolayer transport (bioavailability) study, AB and BA directions
Type: in vitro ADME, Homo sapiens
Settings: AB experiment, acceptor side, S2 (22 mg/mL GSE), 75 min
Marks after values point to notes of the source that are not given here.
readout-type: Basolateral Side 75 min

Example cases with answers are listed next.
molecule	experimental-target	Basolateral Side 75 min
O=C(/C=C/c1ccc(O)c(O)c1)O[C@@H](C(=O)O)[C@@H](O)C(=O)O	Caco-2 cell monolayer	0.07 ± 0.01 ^b mg/L
O=c1c(O[C@@H]2O[C@H](CO)[C@@H](O)[C@H](O)[C@H]2O)c(-c2ccc(O)cc2)oc2cc(O)cc(O)c12 [K3G, kaempferol-3-glucoside]	Caco-2 cell monolayer	6.4 ± 0.1 ^b mg/L
COc1cc(-c2[o+]c3cc(O)cc(O)c3cc2O[C@@H]2O[C@H](CO)[C@@H](O)[C@H](O)[C@H]2O)cc(OC)c1O [M3G, malvidin-3-O-glucoside]	Caco-2 cell monolayer	0.12 ± 0.01 ^b mg/L

Note: attention shifts to another entry.
Challenge: Quick check: Basolateral Side 75 min of O=C(O)c1cc(O)c(O)c(O)c1 ?
Response given: 8.1 ± 0.9 ^b mg/L

These measurements were taken from paper PMC12248599.
